# test-details: Human Liver Microsomal Stability (Test C)
# Assay type: in vitro ADME
# condition-notes: human, liver microsomes
experimental-readout: microsomal CLint (µL/min/mg)

• COc1cc(F)c(O[C@H]2C[C@H](C(=O)O)C2)cc1C(=O)NC1[C@H]2CC[C@H](C2)[C@@H]1C(=O)Nc1cccc(S(=O)(=O)C(F)(F)F)c1 (stereo partly drawn) = 31

[A] COc1cc(F)c(O[C@H]2CC[C@@](C)(C(=O)O)CC2)cc1C(=O)NC1C2CCC(C2)C1C(=O)Nc1ccc(F)c(S(F)(F)(F)(F)F)c1 (single isomer, unassigned)
[B] COc1cc(F)c(O[C@H]2CC[C@@](C)(C(=O)O)CC2)cc1C(=O)NC1CCOCC1C(=O)Nc1cccc(S(=O)(=O)C(F)(F)F)c1 (single isomer, unassigned)
When A and B are compared, which has the higher number for microsomal CLint? Field: selected label. Fill in the label of the entry you choose. B

###

# tested-system: human RXFP1 (Homo sapiens, UniProt Q9HBX9)
# Sequence (Q9HBX9 whole entry): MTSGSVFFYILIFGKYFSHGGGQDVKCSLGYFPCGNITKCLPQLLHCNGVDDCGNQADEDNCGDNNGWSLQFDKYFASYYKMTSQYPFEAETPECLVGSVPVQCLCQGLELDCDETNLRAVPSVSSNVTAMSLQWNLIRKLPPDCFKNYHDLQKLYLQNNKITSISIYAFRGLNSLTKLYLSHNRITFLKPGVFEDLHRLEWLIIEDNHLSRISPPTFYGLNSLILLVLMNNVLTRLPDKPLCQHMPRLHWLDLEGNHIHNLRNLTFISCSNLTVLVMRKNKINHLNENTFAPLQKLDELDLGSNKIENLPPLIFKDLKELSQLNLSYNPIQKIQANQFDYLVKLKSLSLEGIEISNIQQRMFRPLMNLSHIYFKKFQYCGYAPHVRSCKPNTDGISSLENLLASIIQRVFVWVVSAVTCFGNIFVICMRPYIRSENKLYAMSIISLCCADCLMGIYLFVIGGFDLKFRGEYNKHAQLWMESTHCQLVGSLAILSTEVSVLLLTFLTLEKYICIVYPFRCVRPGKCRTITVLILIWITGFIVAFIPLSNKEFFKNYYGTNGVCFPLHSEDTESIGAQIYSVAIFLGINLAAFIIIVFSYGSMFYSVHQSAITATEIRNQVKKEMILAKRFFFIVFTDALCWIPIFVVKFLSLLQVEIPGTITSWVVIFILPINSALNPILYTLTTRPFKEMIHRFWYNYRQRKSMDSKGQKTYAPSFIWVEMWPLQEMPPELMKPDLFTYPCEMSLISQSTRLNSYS
# test-details: RXFP1 Hu cAMP (Test A)
# Format: cell-based
# Parameters: expressed in transfected cells; host or cells: Jump-In T-REx CHO-K1 cells (ThermoFisher), induced with 10 ng/ml doxycycline for 24 h
# condition-notes: RXFP1 Hu cAMP
experimental-readout: Test A Sinf (%)

• COc1cc(F)c(O[C@H]2CC[C@@H](C(=O)O)CC2)cc1C(=O)N[C@@H]1[C@H]2CC[C@H](C2)[C@@H]1C(=O)Nc1ccc(C)c(C(F)(F)F)c1 = 109
• COc1cc(F)c(-c2cc(C)c(C(=O)O)c(C)c2)cc1C(=O)N[C@@H]1[C@H]2CC[C@H](C2)[C@@H]1C(=O)Nc1cccc(S(=O)(=O)C(F)(F)F)c1 = 86
• COc1cc(F)c(O[C@H]2CC[C@@](C)(C(=O)O)CC2)cc1C(=O)N[C@@H]1[C@H](O)CC[C@@H]1C(=O)Nc1cccc(S(=O)(=O)C(F)(F)F)c1 (racemic) = 91
• CCC(C)CNC(=O)C1C2CCC(C2)C1NC(=O)c1cc(OC2CCC(C(=O)O)CC2)c(F)cc1OC (single isomer, unassigned) [Example 202] = 102
• COc1cc(C#N)c(O[C@H]2CC[C@@](C)(C(=O)O)CC2)cc1C(=O)N[C@@H]1CC[C@@H]1C(=O)NCC1(C)CCC1 (racemic) = 101

###

# tested-system: human RXFP1 (Homo sapiens, UniProt Q9HBX9)
# test-details: RXFP1 Hu cAMP (Test A)
# Assay type: cell-based
# Parameters: expressed in transfected cells; host or cells: Jump-In T-REx CHO-K1 cells (ThermoFisher), induced with 10 ng/ml doxycycline for 24 h
# condition-notes: RXFP1 Hu cAMP; read-out: Test A EC50
experimental-readout: EC50 (nM)

• COc1cc(F)c(O[C@H]2CC[C@@](C)(C(=O)O)CC2)cc1C(=O)N[C@@H]1[C@H]2CC[C@H](C2)[C@@H]1C(=O)N[C@H]1CCCC1(C)C (relative stereo) = 600

[I] COc1cc(F)c(-c2ccc3c(c2)OC[C@@H]3CC(=O)O)cc1C(=O)N[C@@H]1[C@H]2CC[C@H](C2)[C@@H]1C(=O)Nc1cccc(S(=O)(=O)C(F)(F)F)c1
[II] COc1cc(F)c(-c2ccn(CCC(=O)O)c(=O)c2)cc1C(=O)N[C@@H]1[C@H]2CC[C@H](C2)[C@@H]1C(=O)Nc1cccc(S(=O)(=O)C(F)(F)F)c1
[III] COc1cc(C#N)c(O[C@H]2CC[C@@](C)(C(=O)O)CC2)cc1C(=O)N[C@@H]1[C@H]2CC[C@H](C2)[C@@H]1C(=O)NCC1CCC(C#N)CC1 (some centres unmarked)
// smallest EC50 at index 0, largest at the end Show the ranking through the labels, in the order asked for. I, II, III
(I: 34 nM, II: 320 nM, III: 8300 nM)
